SUBJECT OF TEST: T1, cynomolgus monkey IL-6 (Macaca fascicularis, UniProt P79341)
T1 construct: His
ASSAY NOTES: Surface plasmon resonance (Biacore), cynomolgus monkey IL-6
Assay type: binding
TEST CONDITIONS: cy/cyno; periplasmic fractions, 29B11 chain shuffled
MEASUREMENT KIND: KA

Need KA of 47C2 (R4): 29B11 chain shuffled Fab, periplasmic fraction (antibody, listed as Lama glama, V domains shown) VH: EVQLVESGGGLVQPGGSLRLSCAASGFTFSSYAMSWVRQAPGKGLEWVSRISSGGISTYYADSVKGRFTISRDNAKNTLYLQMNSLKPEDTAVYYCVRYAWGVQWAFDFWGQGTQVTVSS VL: ALSYDLTQPPSVSGSPGKTVTISCAGTSSDVGYGNYVSWYQQLPGMAPKILIYDVNKRASGIADRFSGSKSGNTASLTISGLQSEDEADYYCASYRRGETIVFGGGTHLTVLG , thanks.
6.48e+08 M⁻¹
